System: K-562 leukemia
Assay: NCI tumour cell line growth inhibition, 48 h
Parameter: TGI. Scope: all listed entries.
READOUT_TYPE: TGI

>>> observed_result("Cc1ccc2c(ccc(/C=C/c3ccc(O)c4ncccc34)[n+]2C)c1")
"83.4 µM"
>>> observed_result("COc1ccc2c(c1)NC1=C(C(=O)OC1)C2c1cc(OC)c(OC)c(OC)c1 (configuration not stated)")
"> 100 µM"
>>> observed_result("Cn1c(Cl)c(/C=C2/C(=O)Nc3ccccc32)c2ccccc21")
"> 100 µM"
>>> observed_result("COc1cc(NCC(C#N)C#N)ccc1N=Nc1ccc(Cl)cc1")
"50.5 µM"
>>> observed_result("CS(=O)(=O)C(C#N)c1nc2ccccc2nc1Cl (configuration not stated)")
"> 100 µM"
>>> observed_result("C=C(CCOC)CCC1CCCCC(CN(C)C)C1=O (configuration not stated)")
"> 100 µM"
>>> observed_result("COC(=O)C1Cc2cc3c(cc2C1=O)CCC3 (configuration not stated)")
"> 100 µM"
>>> observed_result("CNC(=O)OCc1nc(SSC(C)(C)C)n(C)c1COC(=O)NC")
"7.06 µM"
>>> observed_result("COc1ccc2nc3cc(Cl)ccc3c(Sc3ccc([N+](=O)[O-])cc3C)c2c1")
"> 100 µM"
>>> observed_result("CCN1C(=O)/C(=C/c2c(Cl)[nH]c3cc(C)c(OC)cc23)c2ccccc21")
"> 100 µM"
>>> observed_result("COC(=O)[C@@H]1C=C[C@H](OC2OC(COC(C)=O)C(OC(C)=O)C(OC(C)=O)C2OC(C)=O)n2c(=O)n(-c3ccccc3)c(=O)n21 (some centres not stated)")
"4.02 µM"
>>> observed_result("C=C(C)C1CC2(C)C(C)CC(O)CC2C(OC(=O)C=C(C)C)C1O (configuration not stated)")
"> 100 µM"
>>> observed_result("Oc1ccc2ccccc2c1N=Nc1cccc2ccccc12")
"> 100 µM"
>>> observed_result("C=CCn1c(N)c(C#N)c(C#N)c1CCC")
"> 100 µM"
>>> observed_result("O=C(/C=C/c1ccc(O)c(O)c1)OCC(OC(=O)/C=C/c1ccc(O)c(O)c1)C(=O)O (configuration not stated)")
"> 100 µM"
>>> observed_result("O=[N+]([O-])c1ccc(CSc2nncc3[nH]cnc23)cc1")
"> 100 µM"
>>> observed_result("CCOP(=Nc1ccc(N(C)C)cc1)(OCC)OCC")
"> 100 µM"
>>> observed_result("C=C1C(=O)OC2/C=C(\\C(=O)O)CC/C=C(\\C)CC(OC(=O)/C=C(\\C)CC)C12 (configuration not stated)")
"> 100 µM"
>>> observed_result("O=C1CS(=O)(=O)C(c2cccc(Oc3ccccc3)c2)N1c1ccc(Cl)cc1 (configuration not stated)")
"63 µM"
>>> observed_result("C[C@@H](C(=O)O)N1C(c2ccco2)=C(/C(C=O)=C\\c2ccco2)C(=O)/C1=C\\c1ccco1")
"> 100 µM"
>>> observed_result("Cc1ccc(C2(O)CSC(=NC34CC5CC(CC(C5)C3)C4)N2C(P(=O)(O)O)P(=O)(O)O)cc1 (configuration not stated)")
"> 100 µM"
>>> observed_result("CCC1C[N+]23CCc4c([nH]c5ccccc45)C2CC1CC3 (configuration not stated)")
"> 100 µM"
>>> observed_result("O=c1oc(-c2ccccc2)cn1-c1ccccc1")
"> 100 µM"
>>> observed_result("CC(=O)SCCC(NC(=S)Nc1ccccc1)P(=O)(Oc1ccccc1)Oc1ccccc1 (configuration not stated)")
"> 100 µM"
>>> observed_result("O=C(NN1C(=O)C(Cl)C1c1ccc(Cl)cc1)c1c(Cl)c(Cl)c(Cl)c(Cl)c1-c1nc2ccccc2[nH]1 (configuration not stated)")
"> 100 µM"
>>> observed_result("CCN1CCCc2cc3c(C(F)(F)F)cc(=O)oc3cc21")
"> 100 µM"
>>> observed_result("O=C1C2=Cc3ccccc3OC2(O)Oc2cc3ccccc3cc21 (configuration not stated)")
"> 100 µM"
>>> observed_result("O=C(O)CSCCc1ccccc1")
"> 100 µM"
>>> observed_result("OC(CC1CCCCN1)c1ccc2c(c1)oc1ccccc12 (configuration not stated)")
"> 100 µM"
>>> observed_result("COc1cc2c(cc1OCCCCCCCCCCN1C(=O)c3cccc4cccc(c34)C1=O)N=C[C@@H]1CCCN1C2=O")
"74.7 µM"
>>> observed_result("O=C(Nc1ccc(Cl)cc1)C1C(=O)C(=O)N(c2ccc(Cl)cc2)C1=O (configuration not stated)")
"> 100 µM"
>>> observed_result("CN(c1ccc(NC(=O)Nc2c(Cl)cccc2Cl)cc1)c1ccnc(Nc2cccc(CS(C)(=O)=O)c2)n1")
"> 25 µM"
>>> observed_result("O=C1OC(CCCN2CCCCC2)(c2ccccc2)CC12CCCC2 (configuration not stated)")
"> 96.3 µM"
>>> observed_result("COc1ccc(C(C#N)NC23CC4CC(CC(C4)C2)C3)cc1 (configuration not stated)")
"> 100 µM"
>>> observed_result("Cc1cn(C2CC(OC(=O)c3ccc(Cl)cc3)C(COC(=O)c3ccc(Cl)cc3)O2)c(=O)[nH]c1=O (configuration not stated)")
"> 100 µM"
>>> observed_result("O=c1[nH]c2cc(C(F)(F)F)ccc2nc1C(F)(F)F")
"> 100 µM"
>>> observed_result("NC(CSC(c1ccccc1)(c1ccccc1)c1ccccc1)C(=O)NCC(=O)O (configuration not stated)")
"> 100 µM"
>>> observed_result("CCCOC(=O)N[C@H]1CCc2c(Cl)c(OC)c(OC)c(OC)c2-c2ccc(SC)c(=O)cc21")
"> 100 µM"
>>> observed_result("CC(C)C(O)(C(C)C)C(C)C")
"> 100 µM"
>>> observed_result("ONC1=Nc2cc(Cl)ccc2C(=S)N2CSCC12 (configuration not stated)")
"> 100 µM"
>>> observed_result("COC(=O)[C@@H]1C[C@H]2OC(=O)CC[C@]2(C)O[C@H]1[C@H]1O[C@@](C)(O)CCC[C@H]1C")
"> 50 µM"
>>> observed_result("CC(=O)OC1OC([C@H]2c3cccc(O)c3C(=O)c3c(O)cc(C)cc32)C(O)C(O)C1O (some centres not stated)")
"> 33.5 µM"
